Test system: K4 kissing-loop RNA reporter
Assay: apparent KD of K4 kissing-loop reporter; higher = weaker reporter binding
Conditions: Eterna round: R107; input ligand: tryptophan 2.4 mM
Here, each record is paired with measured apparent KD of K4 kissing-loop reporter data.
State the value, then name its unit.

Example sequences with recorded apparent KD of K4 kissing-loop reporter:
{"biopolymer-sequence": "UGCAUGUGAAACAUGUAGGUGCUAGGUGAAGGAGCGAUCGAAAGAUCAGGUAGGUCGCACCUUCCUGAGUGAUGUUCAGGUAAUA [KL-SSArg-A2]", "endpoint-value": "46 nM"}
{"biopolymer-sequence": "GUACCGCGUGCGGCCGCCACUACAUCAAUUACCUAAGCCUAGUGAUGUUGGGUUUUUGCUACAGGUAGGACCGGGCAGAUGUAUG [theeternabot_sameState_KL_Trp_B_38]", "endpoint-value": "270 nM"}

// returns reported apparent KD of K4 kissing-loop reporter for input UGGGUGUAGUGAUGUUAUAUAGAGAGUGAUACCAGCGUAGAGAGAUGCCCUUGGCAGCAUAGAAGAGUAUCAUUGGAGGAGGAGG [ExTheophyl.Az]
514 nM

Which apparent KD of K4 kissing-loop reporter reading was recorded for the sequence ACCCGUAGGAUACGGAGGUGUAAAUGGGUAUAGGAUAUCUAGAAAUAGAGAAGGAUACCAGUGAUGUUGGUUCCGUAUAUCUUAA ?
119 nM

Sample AAGCAGUCACGCGAAGCCAUCGAAGAUGGUCGAGGACCGGUACGGCCGCCACUCGGAGUGAUGUUCCGAAGACUGCAAAAUAAAA — what was its apparent KD of K4 kissing-loop reporter?
341 nM

apparent KD of K4 kissing-loop reporter lookup needed for GCCGUACGCAUGGAUACCAGCAUCAGAUCUUAGUGAUGUUAAGUCGAGAGUUGGUCAAAAUGCCCUUGGCAGCCAUGCGUACGGC , thanks.
98.2 nM

###

Test system: MS2 coat protein
Assay: apparent KD of MS2 coat protein; designed switch direction (-1 OFF switch, 1 ON switch): 1; higher = weaker reporter binding
Settings: Eterna round: R95; input ligand: microRNA oligo, concentration not stated
Collected apparent KD of MS2 coat protein values appear next to each entry.
I only need the number, in nM, no unit after it.

{"biopolymer-sequence": "AUCUCUGUGCCGCAGGAUAUACCAACGGCUACAUGAGGAUCACCCAUGUCAUACCGUCGAAAAUGGUAGAAGGGUGUGCACGAGC [Leesmala] (puzzle: Same State 2)", "apparent KD of MS2 coat protein (nM)": 45.5}

What apparent KD of MS2 coat protein value was documented for this sequence, ACGUGGAUAUCACAGGAUAUACUCAUAACUACAUGAGGAUCACCCAUGUAGCGGUAUUCCGAUGCGUAGAAGGGUGAUGGACCAC [Same State 2 - Mod of Artece v.2] (puzzle: Same State 2) ?
14.9

# input sequence: AAGAAACAUGAGGAUCACCCAUGUCGAAAUAACACAGGAUAUCGCACGACUACGGUGCGGCGAGAAGGGUGAGGAA [Estere] (puzzle: Same State 1) ; wanted: its apparent KD of MS2 coat protein
78.4

Need apparent KD of MS2 coat protein, item UACCAACAAAUAAAACAAGCGUGCUCGUCACAUGAGGAUCACCCAUGUUUAAACGCUGUACCUACAUCCUCAGCGCC [Usatqulale] (puzzle: Sensor for hsa-mir-208a)
31.3

Endpoint output: apparent KD of MS2 coat protein of GGGUGUGGAAGGAAAGAUAGGAAAAGGAAACAUGAGGAUCACCCAUGUGAAGGAAGAAAGGGAGCUCGUCUUAUAAG [JR_SHM208A_Sub001] (puzzle: Sensor for hsa-mir-208a) . Value?
22.8

###

Test system: K4 kissing-loop RNA reporter;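 note: bound reporter read as fluorescence of individual clusters on recovered sequencing chips by microscopy, with normalized cluster intensities fitted with a binding model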
Assay: apparent KD of K4 kissing-loop reporter; higher = weaker reporter binding
Settings: Eterna round: R107; input ligand: tryptophan 2.4 mM
Is apparent KD of K4 kissing-loop reporter at least 100 nM? Then yes. If not, no.

Completed entries (count: 3):
{"biopolymer-sequence": "GGAUAGGACACAGGAUAUGGUAGUGAUGUUACCAAACUGGUUAAACAUGUCAGAAAACUGGCAUGACCAGAAGGGUGUCCUAUCG [FmnBX 27 C11+G75]", "answer-label": "no"}
{"biopolymer-sequence": "AAUAUAGUGAUGUUAUAUAAGGAAAGAAGGCGAGGACCGGUACGGCCGCCACUCGAAAGGUGAGAAGGUGGCGAAGAAGAAAGAA [ExTryptoA.B]", "answer-label": "yes"}
{"biopolymer-sequence": "UGACUGGAUGGAAGGAGCGCUAAACUCCUAGUGAUGUUAGGGAUACGAGACAAAGUCUUGAGGCAGGUAGGUCGCCAUCUAGUCU [FiskerMod 11 - Jieux - Same State - Arginine B]", "answer-label": "yes"}

Determine whether this sequence has apparent KD of K4 kissing-loop reporter no lower than 100 nM: GCCGCCGCGGCAGGAUAUAGGUUCAUGGAGUGAUGUUCCAUAACCCGAGUGAUGUUCGUUAUCCGCCUAGAAGGGCCGCGGCGGC
yes

API: above_or_equal(metric=apparent KD of K4 kissing-loop reporter, cutoff=100 nM) for item GGAUGGUAGGCGGCCGCCACUAAAACUGAACACAUACAAACCAGUGAUGUUGGUAUGAUGAAGUAUAGGACCGGGCCUAGAUAGA [Exclusion - Tryptophan B (Freestyle 2)]
yes

Does UGACUGGACUGAAGGAGCGCUGAAGGAGCGUAAGUAGUGAUGUUGCUUACAGGUAGGUCGCAGCAGGUAGGUCGCAGUCUAGUCU have a reported apparent KD of K4 kissing-loop reporter of at least 100 nM?
no

###

System: MS2 coat protein
Experiment: apparent KD of MS2 coat protein; higher = weaker reporter binding
Details: Eterna round: R107; input ligand: arginine 13.2 mM
Everything with apparent KD of MS2 coat protein lower than 0.02 µM is criterion not met; everything else, including exactly 0.02 µM, is criterion met.

Solved cases (5 shown):
{"biopolymer-sequence": "UGUAUGUGAUCUGAUACCAGUCCAACUGGUAAAACUUGAGGAUCACCCAAGUAAAAUUGGGACCCUUGGCAGCAGAUCGCAUACU", "experimental-system": "MS2 coat protein", "answer-label": "criterion met"}
{"biopolymer-sequence": "GCACUACAUGAGGAUCACCCAUGUGCAGAUACCAGAGGUGUAUGCCUCCCUUGGCAGCUGAGUAGCUCUGGAGGCCUAUUGGUUU [Same State Theophylline A GF15]", "experimental-system": "MS2 coat protein", "answer-label": "criterion not met"}
{"biopolymer-sequence": "UGUAUGGAAACAUGAGGAUCACCCAUGUGGCGAGGACCGGUACGGCCGCCACUCGAGCAGCAAGCGUGUAUGACGCUGCUGCAUG [SS-trypA-0]", "experimental-system": "MS2 coat protein", "answer-label": "criterion met"}
{"biopolymer-sequence": "UGUAGUACCAGACAUGAGGAUCACCCAUGUCGAGGACCGGUACGGCCGCCACUCGGCAGUUUGCGUCCUCAGGUACUCCGGGUAA [Dianreti]", "experimental-system": "MS2 coat protein", "answer-label": "criterion not met"}
{"biopolymer-sequence": "GUGGACAUGAGGAUCACCCAUGUAAGUCGGCGAGGACCGGUACGGCCGCCACUCGUGUUCUGUCUCAGCUCAAACGUAGCCGGAA [theeternabot_sameState_MS2_Trp_A_13]", "experimental-system": "MS2 coat protein", "answer-label": "criterion met"}

Given AACCGAGGCUAUCCUCUCCGCCUAUGUGAUACCAGAAUAAUUUUAUUCCCUUGGCAGCAUGACAUGAGGAUCACCCAUGUCUCUU [SSTheo A #11] , state whether its apparent KD of MS2 coat protein is at least 0.02 µM.
criterion not met

Check the entry CACGAAAGAUCGGCCGCCACUAAUCUAUGUGUACUAGCACAUGAGGAUCACCCAUGUUCUUGCGUUAGGACCGGGAUUGAGCGUG [#03 Exclusion Tryptophan B] : does apparent KD of MS2 coat protein equal or exceed 0.02 µM?
criterion met

Evaluate CGUCGAGACUGAAGGAGCGAGAUAACAACAUUGGGUCUCAACACAUGAGGAUCACCCAUGUCUCAGGUAGGUCGCGGUGUCACCG [Exclusion Arginine B GF21] : apparent KD of MS2 coat protein at minimum 0.02 µM?
criterion met

Could you verify whether the entry ACAUGAGGAUCACCCAUGUAUGACUAUCCUCGAGGACCGGUACGGCCGCCACUCGAACGAGUGGCUCGCGAGUGCGCACUCGCGG [5'end-1] shows apparent KD of MS2 coat protein of no less than 0.02 µM?
criterion not met

Determine whether measured apparent KD of MS2 coat protein meets or exceeds 0.02 µM for UAAUCUGGUCUUCGAUAGGUGAUCCUCAAACGAGGACCGGUACGGCCGCCACUCGAUAACAUGAGGAUCACCCAUGUACGAGUGA [|T'-M'-Trp-Ms2|_Design16b]
criterion met

Reported apparent KD of MS2 coat protein at or above 0.02 µM? AUAUAUACAUGAGGAUCACCCAUGUUAUUUCGAGGACCGGUACGGCCGCCACUCGAUAGAGUAGAAGUAAAUUUUGAUUCAUGUA [JR_SSTryptoA_Sub009]
criterion not met

Is apparent KD of MS2 coat protein at least 0.02 µM? Consider AUGUAGAACCGAAGGAGCGCGAUAACAUGAGGAUCACCCAUGUAGCUUUGGUGGCCUCGAUCGCAGGUAGGUCGCGGAAGUAGUA [Exclusion - Arginine B / A]
criterion met

Data origin: the supplement of paper PMC9170038
